- assayNotes: chemical genetic growth profiling, strain panel (AID 1159580);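 note: tested at 20 µM; growth read once vehicle control cultures reached saturation at 30 °C; 1 = growth at the plate median or of vehicle wells; lower values mean less growth of the strain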
- testConditions: S. cerevisiae deletion strains, growth OD, locus YMR078C, strain ctf18, active compounds read low
The campaign covered roughly 5,500 compounds. About 2,000 (36%) were called active. Not shown: some 18% with an inconclusive outcome. The list shows a part of the results.
propertyName: normalized growth
Enter a number only.

query: normalized growth lookup needed for CC(C)(O)[C@@H]1[C@H]2OC(=O)[C@@H]1[C@]1(O)C[C@H]3O[C@]34C(=O)O[C@H]2[C@]14C , thanks.
result: 1.01

query: normalized growth lookup needed for CCOC(=O)C(C)(C)Oc1ccc(Cl)cc1 , thanks.
result: 0.999

query: normalized growth lookup needed for COc1ccc2c(c1)OCc1c-2oc2cc(OC)ccc12 , thanks.
result: 1.01

query: normalized growth lookup needed for CC(N)C(=O)OC(C)(C)Cc1ccc(Cl)cc1 (stereo not drawn) , thanks.
result: 0.98

query: normalized growth lookup needed for C=C1C([C@]2(C)C(CC(=O)OC)[C@@](C)(COC(C)=O)OC(=O)C[C@@H]2OC(C)=O)[C@@H](OC=O)[C@H](OC(=O)C(O)C(C)CC)[C@@]2(C)[C@H](c3ccoc3)CC(=O)C12O (stereo partly drawn) , thanks.
result: 1.02

query: normalized growth lookup needed for CCOC(=O)[C@H](CCc1ccccc1)N[C@H]1CCc2ccccc2N(CC(=O)O)C1=O , thanks.
result: 0.978

query: normalized growth lookup needed for C=C1C([C@]2(C)C(CC(=O)OC)[C@@](C)(COC(C)=O)OC(=O)C[C@@H]2OC(C)=O)[C@@H](OC=O)[C@H](OC(=O)C(OC(C)=O)C(C)CC)[C@@]2(C)[C@H](c3ccoc3)CC(=O)C12O (stereo partly drawn) , thanks.
result: 1.03

query: normalized growth lookup needed for CCN(CC)CCCC(C)Nc1c2ccc(Cl)cc2nc2ccc(OC)cc12 (stereo not drawn) , thanks.
result: 0.954
